- protocol.description: Intrinsic clearance in dog hepatocytes at 3 uM assessed per million cells
- Assay type: ADME, cell-based, Canis lupus familiaris, Hepatocyte
- study.conditions: read-out: CLH
assay.metric: hepatocyte CLint at 3 µM (µL/min/1e6 cells)

                                   compound  val
0  N#Cc1cnc(Nc2cc(NC[C@H]3CNCCO3)c(C(F)(F)F)cn2)cn1 [SRA-737]   55

----------
- protocol.description: in vivo
- study.conditions: mouse, iv, 5 mg/kg
assay.metric: Vd (L/kg)

                                   molecule   val
0  COC(=O)c1cnc(Nc2cnc(C#N)cn2)cc1NCCC1CCNCC1  60.5

----------
- protocol.description: in vitro
- study.conditions: human, hepatocytes
assay.metric: hepatocyte CLint at 3 µM (µL/min/1e6 cells)

                                   molecule   val
0  N#Cc1cnc(Nc2cc(NC[C@H]3CNCCO3)c(C(F)(F)F)cn2)cn1  2.72

----------
- protocol.description: in vivo
- study.conditions: mouse, iv, 10 mg/kg
assay.metric: half-life (h)

                                   molecule  val
0  N#Cc1cnc(Nc2cc(NC[C@H]3CNCCO3)c(-c3cccc(F)c3)cn2)cn1  4.3
1  N#Cc1cnc(Nc2cc(NC[C@H]3CNCCO3)c(C(F)(F)F)cn2)cn1 [SRA-737]  2.9
2  CC(C)(O)C#Cc1cnc(Nc2cnc(C#N)cn2)cc1NC[C@@H]1CNCCO1  3.8
3  N#Cc1cnc(Nc2cc(NC[C@@H]3CNCCO3)c(C3CC3)cn2)cn1  8.1

----------
- protocol.description: Intrinsic clearance in rat hepatocytes at 3 uM assessed per million cells
- Type: ADME, cell-based, Hepatocyte
- study.conditions: read-out: CLH
assay.metric: hepatocyte CLint at 3 µM (µL/min/1e6 cells)

>>> df
                                   compound              assay_metric   val
0  N#Cc1cnc(Nc2cc(NC[C@H]3CNCCO3)c(C(F)(F)F)cn2)cn1 [SRA-737]  hepatocyte CLint at 3 µM  43.4

----------
- protocol.description: Lipophilicity, logD of the compound at pH 7.4 by LC-MS/MS analysis
- Assay type: physicochemical
- study.conditions: buffer
assay.metric: logD

>>> print(df.to_string())
                                   molecule   val
0  N#Cc1cnc(Nc2cc(NC[C@H]3CNCCO3)c(C(F)(F)F)cn2)cn1  1.47

----------
- protocol.description: in vivo
- study.conditions: mouse, po, 10 mg/kg
assay.metric: bioavailability (%)

>>> df
                                   molecule  readout_units  val
0  CC(C)(O)C#Cc1cnc(Nc2cnc(C#N)cn2)cc1NC[C@@H]1CNCCO1              %   10
1  N#Cc1cnc(Nc2cc(NC[C@@H]3CNCCO3)c(C3CC3)cn2)cn1              %   68
2  N#Cc1cnc(Nc2cc(NC[C@H]3CNCCO3)c(-c3cccc(F)c3)cn2)cn1              %   53

----------
- protocol.description: in vivo
- study.conditions: rat
assay.metric: clearance (mL/min/kg)

In [3]: df
Out[3]:
                                   molecule  assay_metric  readout_units   val
0  N#Cc1cnc(Nc2cc(NC[C@H]3CNCCO3)c(C(F)(F)F)cn2)cn1     clearance      mL/min/kg  58.3
